B1: tRNA (parent)
chain: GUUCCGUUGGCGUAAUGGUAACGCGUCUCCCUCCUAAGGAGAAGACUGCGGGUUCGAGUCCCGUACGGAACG

- Variants of: B1
- measurement_protocol: yeast fitness relative to wild type (ratio to wild type); higher = fitter; tRNA-Arg(CCU), competitive growth, 37 C, YPD
Fewer inactive variants are shown than the library holds.
attribute_measured: yeast fitness
No unit in the answer, please; the number alone is enough.

[
  {
    "mutation_spec": "A42C G48C C55U",
    "yeast fitness": 0.557
  },
  {
    "mutation_spec": "C5G U28A G67C",
    "yeast fitness": 0.634
  },
  {
    "mutation_spec": "U28C G56C",
    "yeast fitness": 0.53
  },
  {
    "mutation_spec": "A15U U16A A21C C33G",
    "yeast fitness": 0.558
  },
  {
    "mutation_spec": "G23A C30U C62A G68A",
    "yeast fitness": 0.575
  },
  {
    "mutation_spec": "G6A C34G A37U C49G",
    "yeast fitness": 0.532
  }
]

Exercise: For the variant shown here, A43G A70C , give the reported yeast fitness.
Key: 1.02
